Would you kindly list inhibition for each of these molecules?
- Target Under Test: Prostaglandin E synthase (Homo sapiens) (UniProt O14684)
- Sequence (O14684 whole entry): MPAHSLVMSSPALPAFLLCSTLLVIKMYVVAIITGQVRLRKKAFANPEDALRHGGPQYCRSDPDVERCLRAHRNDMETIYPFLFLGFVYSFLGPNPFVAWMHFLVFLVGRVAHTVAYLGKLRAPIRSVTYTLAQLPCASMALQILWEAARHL
- Measurement Notes: Inhibition of mPGES-1 in microsomes isolated from IL-1beta-stimulated human A549 cells at 10 uM using PGH2 as substrate preincubated for 15 mins followed by substrate addition measured after 1 min by RP-HPLC method relative to control
- Format: cell-free
Entry rule: numbers only, all in %.

Reported inhibition, molecule "O=C(Oc1ccc2c(c1)-c1nc3nonc3nc1C2=O)c1ccccc1" : ____
70

Try this molecule next: "O=C(Oc1cccc2c1C(=O)c1nc3nonc3nc1-2)c1ccccc1"
70

Try this molecule next: "O=C1c2ccc(O)cc2-c2nc3nonc3nc21"
30

Try this molecule next: "O=C1c2ccccc2-c2nc3nonc3nc21"
30

Try this molecule next: "O=C1c2nc3nonc3nc2-c2cccc(O)c21"
5

Try this molecule next: "O=C(Oc1ccc2c(c1)C(=O)c1nc3nonc3nc1-2)c1ccccc1"
85

Try this molecule next: "CC(=O)O/N=C1\C=Cc2c(no[n+]2[O-])C1=O"
20

Try this molecule next: "O=C1c2cc(O)ccc2-c2nc3nonc3nc21"
15
